# ASSAY EXPLANATION: gradient 5% acetonitrile 3 min, to 50% in 2 min, to 85% in 15 min, held 3 min, 100 µL/min
# RUN CONDITIONS: column: Zorbax Extend-C18 2.1 x 50 mm; eluents: water / acetonitrile, 0.1% formic acid
param class (str): category from RP-LC retention time; see ranges 1 (below 800 s), 2 (800 s to below 900 s), 3 (900 s or more)

Inquiry: For O=C(c1ccc(Br)o1)N1CCN(c2ccc(NCc3ccccc3)nn2)CC1 , which RP-LC retention time bin applies?
Reply text: 1

Inquiry: For Cc1nc(-c2csc(S(=O)(=O)N3CCC(C(=O)N4c5ccccc5CC4C)CC3)c2)no1 (stereo unspecified) , which RP-LC retention time bin applies?
Reply text: 3

Inquiry: For COc1cc(NC(=O)Nc2cccc(CNC(=O)O[C@H]3CCOC3)c2)ccc1-c1cnco1 , which RP-LC retention time bin applies?
Reply text: 2

Inquiry: For O=C(c1ccco1)N1CCCn2cc(-c3ccccc3F)nc21 , which RP-LC retention time bin applies?
Reply text: 1

Inquiry: For CC(C)c1noc(-c2cccnc2N2CCCN(Cc3ccc(F)cc3)CC2)n1 , which RP-LC retention time bin applies?
Reply text: 1

Inquiry: For Cn1cc(CCN2CCC(C(=O)NCc3ccccc3F)CC2)c2cccnc21 , which RP-LC retention time bin applies?
Reply text: 1

Inquiry: For Cc1c(Cl)cccc1Nc1c(-c2cccc(Cl)c2)nc2cnccn12 , which RP-LC retention time bin applies?
Reply text: 3

Inquiry: For Cc1oc(-c2[nH]ncc2C(=O)N2CCOCC2)cc1S(=O)(=O)NC1CC1 , which RP-LC retention time bin applies?
Reply text: 1

Inquiry: For CCOC(=O)c1c(C)[nH]c(C(=O)N2CCC(C(C)C(=O)NCc3ccc(OCC)cc3)CC2)c1C (stereo unspecified) , which RP-LC retention time bin applies?
Reply text: 2

Inquiry: For O=C(NCC1CCN(c2cc(-c3ccncc3)[nH]n2)CC1)c1ccc2c(c1)OCO2 , which RP-LC retention time bin applies?
Reply text: 1

Inquiry: For Cn1c(=O)c2cc(C(=O)Nc3ccc4c(c3)OCCO4)cnc2n(-c2ccc(F)cc2)c1=O , which RP-LC retention time bin applies?
Reply text: 2

Inquiry: For COc1cccc(-c2nc(C3CCN(S(=O)(=O)c4ccccc4F)CC3)no2)c1 , which RP-LC retention time bin applies?
Reply text: 3

Inquiry: For Nc1c(C(=O)NCC2CCCO2)c2nc3ccccc3nc2n1C1CCCC1 (stereo unspecified) , which RP-LC retention time bin applies?
Reply text: 3

Inquiry: For CC(C)C1c2nccn2CCCN1C(=O)Cn1c(=O)oc2ccccc21 (stereo unspecified) , which RP-LC retention time bin applies?
Reply text: 1

Inquiry: For Cc1ccc(C)c(CNC(=O)c2cc3n(n2)CC(C)(C(=O)NCc2ccc(F)cc2)N(C)C3=O)c1 (stereo unspecified) , which RP-LC retention time bin applies?
Reply text: 2

Inquiry: For CCc1nnc2c(=O)n(CC(=O)N3CCN(c4ccccn4)CC3)c3cccnc3n12 , which RP-LC retention time bin applies?
Reply text: 1

Inquiry: For COc1cc(OC)c(NC(=O)Nc2c(-c3ccc(F)cc3)nc3ccccn23)cc1Cl , which RP-LC retention time bin applies?
Reply text: 1

Inquiry: For CSc1cccc(NC(=O)c2c[nH]c3ncccc23)c1 , which RP-LC retention time bin applies?
Reply text: 1

All values here come from the METLIN SMRT retention time set (Domingo-Almenara et al. 2019).
